experiment: Cytotoxicity against human CEM/DNR cells after 72 hrs by MTS assay; format: functional, cell-based
readout: IC50 (µM)
Give a bare numeral; the unit µM is implied.

Before answering, review these 3 worked examples.
CC(C)[C@@H]1CC[C@]2(C(=O)O)CC[C@]3(C)[C@H](CC[C@@H]4[C@@]5(C)CC([N+](=O)[O-])([N+](=O)[O-])C(=O)C(C)(C)[C@@H]5CC[C@]43C)[C@@H]12: 46.6
CC(C)[C@@H]1CC[C@]2(C(=O)O)CC[C@]3(C)[C@H](CC[C@@H]4[C@@]5(C)C=C(N)C(=O)C(C)(C)[C@@H]5CC[C@]43C)[C@@H]12: 33.9
CC(C)[C@@H]1CC[C@]2(C(=O)O)CC[C@]3(C)[C@H](CC[C@@H]4[C@@]5(C)CC(N=[N+]=[N-])C(=O)C(C)(C)[C@@H]5CC[C@]43C)[C@@H]12 (stereo not given in full): 16

We next turn to a different compound, shown below.
// query // lookup IC50 for CC(=O)NC1=C[C@]2(C)[C@H]3CC[C@@H]4[C@H]5[C@H]6OC[C@@]5(CCC6(C)C)CC[C@@]4(C)[C@]3(C)CC[C@H]2C(C)(C)C1=O
// result 35.3
